# testedTarget: T1, human CI-M6PR domain1-3His6 (human, UniProt P11717 41-467)
# T1 construct: Recombinant, made in HEK293 cells; Biotinylated with NHS-PEG4-biotin for BLI; unlabelled in SEC-MALLS and crystallisation; also called CI-M6PR hDom1-3His6; hDom1-3His6
# protocolDetails: BLI, association pH 7.4, dissociation at pH 5.5, mean of local fits

[
  {
    "binder": "humanized variant VHH7h2 (VHH, Made in E. coli, IMAC purified; tag not specified) VHH: DVQLVESGGGLVQPGGSLRLSCAASGIIFSDNRMDWYRQAPGKQREWVATLASYGWKTYADSVKGRFTISRDNSKNTVYLQMNSLRPEDTAVYYCKASSPVLNDIWGQGTLVTVSS",
    "koff [s⁻¹]": 0.014
  },
  {
    "binder": "humanized variant VHH7h1 (VHH, Made in E. coli, IMAC purified; tag not specified) VHH: EVQLVESGGGLVQPGGSLRLSCAASGIIFSDNRMDWYRQAPGKQREWVATLASYGWKTYADSVKGRFTISRDNSKNTVYLQMNSLRPEDTAVYYCKASSPVLNDIWGQGTLVTVSS",
    "koff [s⁻¹]": 0.014
  },
  {
    "binder": "humanized variant VHH7h3 (VHH, Made in E. coli, IMAC purified; tag not specified) VHH: DVQLVESGGGLVQPGGSLRLSCAASGIIFSDNRMDWYRQAPGKQREWVATLASYGWKTYADSVKGRFTISRDNTKNTVYLQMNSLRPEDTAVYYCKASSPVLNDIWGQGTLVTVSS",
    "koff [s⁻¹]": 0.015
  },
  {
    "binder": "anti-CI-M6PR VHH8 (VHH, Purified by IMAC, so tagged; Labelled with Alexa Fluor 488 (NHS ester) in the imaging experiments) VHH: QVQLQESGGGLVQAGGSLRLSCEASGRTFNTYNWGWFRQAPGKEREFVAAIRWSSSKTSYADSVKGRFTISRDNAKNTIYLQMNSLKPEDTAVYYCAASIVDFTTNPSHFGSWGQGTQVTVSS",
    "koff [s⁻¹]": 0.0034
  }
]
